// reported pIC50 for each item listed
# Test Target: NAMPT (human, recombinant, C-terminally His-tagged) (Homo sapiens)
# Sequence (P43490 whole entry): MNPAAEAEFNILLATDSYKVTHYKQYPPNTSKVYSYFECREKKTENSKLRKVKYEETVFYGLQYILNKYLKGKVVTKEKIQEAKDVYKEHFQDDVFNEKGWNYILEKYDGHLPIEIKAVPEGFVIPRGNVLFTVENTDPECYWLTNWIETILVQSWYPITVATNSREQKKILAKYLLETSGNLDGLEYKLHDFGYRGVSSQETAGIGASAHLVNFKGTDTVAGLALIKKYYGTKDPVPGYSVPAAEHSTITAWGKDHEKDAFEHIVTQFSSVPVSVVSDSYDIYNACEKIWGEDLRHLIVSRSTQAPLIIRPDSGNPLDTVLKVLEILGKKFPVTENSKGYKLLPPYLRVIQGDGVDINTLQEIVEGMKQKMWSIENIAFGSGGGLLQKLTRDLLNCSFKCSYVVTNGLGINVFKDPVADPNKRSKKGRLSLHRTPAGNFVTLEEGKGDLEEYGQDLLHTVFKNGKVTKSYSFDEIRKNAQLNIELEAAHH
# Method Summary: Time-Resolved Fluorescence Resonance Energy Transfer (TR-FRET) Binding Assay of NAMPT
# Experimental Parameters: 6.8 nM NAMPT, 200 nM probe, equilibrated 3 hours, absence of substrates
# pIC50 = -log10(concentration in molar units)

Example compounds with recorded pIC50:
[in] Supply pIC50 value. Item: `CC(C)(C)C(=O)N1CCC(c2ccc(NC(=O)C3CN(c4cccnc4)C3)cc2)CC1`
[out] 7.81

[in] Name the recorded pIC50 of the compound listed here: O=C(Nc1ccc(OC2CN(C(=O)C3CCOC3)C2)cc1)C1CN(c2ccnnc2)C1 (centres unmarked)
[out] 6.93

[in] Input `CC(C)CC(=O)N1CCC(Oc2ccc(NC(=O)C3CN(c4cccnn4)C3)cc2)CC1` , output reported pIC50.
[out] 6.80

[in] Annotate the compound O=C(Nc1ccc(OC2CCN(C(=O)C3CCOC3)CC2)cc1)C1CN(c2cccnn2)C1 (centres unmarked) with its measured pIC50.
[out] 6.62

[in] Name the recorded pIC50 of the item O=C(Nc1ccc(OC2CCN(C(=O)C3CCCO3)CC2)cc1)C1CN(c2cccnn2)C1 (centres unmarked) in your answer.
[out] 6.79

[in] Identify the reported pIC50 for the following entry. `O=C(Nc1ccc(OC2CCN(C(=O)c3cccc(F)c3)CC2)cc1)C1CN(c2ccnnc2)C1`
[out] 6.90

More entries:
[in] Answer with reported pIC50 of `CC(=O)N1CCC(c2ccc(NC(=O)C3CN(c4cccnc4C)C3)cc2)CC1`
[out] 6.61

[in] Give me measured pIC50, please, for this compound: `Cc1ccc(C(=O)N2CCC(c3ccc(NC(=O)C4CN(c5cccnn5)C4)cc3)CC2)cc1C`
[out] 7.66

Value source: patent US8975398B2
